The reader will find reported Total Mean Fluorescent Intensity values listed item by item below.
Target: T1, human CD20 (human, UniProt P11836 1-297)
T1 construct: On human CD20-transfected MG87 cells, or endogenous on Daudi, RL and Raji cells; also called hCD20
T1 sequence: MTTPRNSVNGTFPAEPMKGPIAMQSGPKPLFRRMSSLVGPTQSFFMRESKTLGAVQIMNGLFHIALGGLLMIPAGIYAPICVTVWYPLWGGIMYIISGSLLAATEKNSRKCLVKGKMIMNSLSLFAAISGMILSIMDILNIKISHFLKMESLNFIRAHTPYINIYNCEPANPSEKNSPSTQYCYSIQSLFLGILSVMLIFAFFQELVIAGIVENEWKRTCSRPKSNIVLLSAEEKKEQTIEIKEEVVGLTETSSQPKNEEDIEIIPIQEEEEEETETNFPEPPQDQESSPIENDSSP
Assay: flow cytometry, hCD20-transfected MG87 cells
Give only the figure.

Answered examples (2):
>  <Binder>
3B9-10 (antibody, V domains shown, Fully human IgG, constant region not specified; also called 3B9-10N) VH: EVQLVESGGGLVQPGRSLRLSCVASGFTFNDYAMHWVRQAPGKGLEWVSVISWNSDSIGYADSVKGRFTISRDNAKNSLYLQMHSLRAEDTALYYCAKDNHYGSGSYYYYQYGMDVWGQGTTVTVSS VL: EIVMTQSPATLSVSPGERATLSCRASQSVSSNLAWYQQKPGQAPRLLIYGTSTRATGIPARFSGSGSGTEFTLTISSLQSEDFAVYYCQQYNNWPLTFGGGTKVEIK

>  <Total Mean Fluorescent Intensity>
2990

$$$$
>  <Binder>
rituximab (RITUXAN, IDEC Pharmaceuticals Corp.) (antibody, V domains shown) VH: QVQLQQPGAELVKPGASVKMSCKASGYTFTSYNMHWVKQTPGRGLEWIGAIYPGNGDTSYNQKFKGKATLTADKSSSTAYMQLSSLTSEDSAVYYCARSTYYGGDWYFNVWGAGTTVTVSA VL: QIVLSQSPAILSASPGEKVTMTCRASSSVSYIHWFQQKPGSSPKPWIYATSNLASGVPVRFSGSGSGTSYSLTISRVEAEDAATYYCQQWTSNPPTFGGGTKLEIK

>  <Total Mean Fluorescent Intensity>
2960

$$$$

Switching to the query record.
input: Hello, please tell me recorded Total Mean Fluorescent Intensity for this one: 9D4-7 (antibody, V domains shown, Fully human IgG, constant region not specified; also called 9D4-7N) VH: EVQLVESGGGLVQPGRSLRLSCAASGFTFYDYAMHWVRQAPGKGLEWVSGISWNSDTIGYADSVKGRFTISRDNAKNSLYLQMNSLRAEDTALYYCTKDGSYGHFYSGLDVWGQGTTVTVSS VL: EIVLTQSPATLSLSPGERATLSCRASQSVSSYLAWYQQKPGQAPRLLIYVASNRATGIPARFSGSGSGTDFTLTISSLEPDDFAVYYCQQRYYWPLTFGGGTKVEIK
output: 3160
